test system: L929; assay: Cytotoxicity against mouse L929 cells after 5 days by MTT assay; format: functional, cell-based; settings: L929, 120 h
Measured Quantity: IC50 (µg/mL)
Answer format: numeric, µg/mL implied, no suffix.

Consider the reported IC50 for these compounds:
O=C(c1c[nH]c2ccccc12)c1nc2ccccc2c2cc[nH]c12 [MARINOQUINOLINE F]	4.1
Cc1nc2ccccc2c2cc[nH]c12 [MARINOQUINOLINE A]	5.5
c1ccc(Cc2nc3ccccc3c3cc[nH]c23)cc1 [MARINOQUINOLINE C]	5.4

## Task May I ask what IC50 has been recorded for c1ccc2c(c1)nc(-c1c[nH]c3ccccc13)c1[nH]ccc12 [MARINOQUINOLINE E] ?
## Result 5.5

## Task Query (compound): CC[C@]1(O)C[C@@H]2CN(CCc3c([nH]c4ccccc34)[C@@](C(=O)OC)(c3cc4c(cc3OC)N(C)[C@H]3[C@@](O)(C(=O)OC)[C@H](OC(C)=O)[C@]5(CC)C=CCN6CC[C@]43[C@@H]65)C2)C1 [VINBLASTINE] ; field requested: IC50
## Result 0.018

## Task // lookup IC50 for Oc1ccc(Cc2nc3ccccc3c3cc[nH]c23)cc1 [MARINOQUINOLINE D]
## Result 1.1
